- TESTED TARGET: rat α6/α3β4 nAChR (Rattus norvegicus, UniProt P04757+P12392+P43143)
- Sequence (P04757 whole entry, looked up): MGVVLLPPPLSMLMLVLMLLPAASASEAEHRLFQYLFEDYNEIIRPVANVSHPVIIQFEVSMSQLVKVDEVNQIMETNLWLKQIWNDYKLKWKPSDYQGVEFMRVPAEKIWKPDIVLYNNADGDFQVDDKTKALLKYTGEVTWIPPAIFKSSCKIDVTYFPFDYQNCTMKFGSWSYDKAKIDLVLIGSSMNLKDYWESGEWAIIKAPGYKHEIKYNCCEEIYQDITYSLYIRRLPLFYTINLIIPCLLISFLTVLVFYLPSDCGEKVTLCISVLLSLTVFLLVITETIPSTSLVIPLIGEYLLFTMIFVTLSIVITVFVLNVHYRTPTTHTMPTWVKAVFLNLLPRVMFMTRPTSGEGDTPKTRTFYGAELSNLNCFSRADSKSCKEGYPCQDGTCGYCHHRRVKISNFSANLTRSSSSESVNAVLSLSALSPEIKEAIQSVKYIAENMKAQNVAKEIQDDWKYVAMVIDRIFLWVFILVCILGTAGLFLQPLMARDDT
- Sequence (P12392 whole entry, looked up): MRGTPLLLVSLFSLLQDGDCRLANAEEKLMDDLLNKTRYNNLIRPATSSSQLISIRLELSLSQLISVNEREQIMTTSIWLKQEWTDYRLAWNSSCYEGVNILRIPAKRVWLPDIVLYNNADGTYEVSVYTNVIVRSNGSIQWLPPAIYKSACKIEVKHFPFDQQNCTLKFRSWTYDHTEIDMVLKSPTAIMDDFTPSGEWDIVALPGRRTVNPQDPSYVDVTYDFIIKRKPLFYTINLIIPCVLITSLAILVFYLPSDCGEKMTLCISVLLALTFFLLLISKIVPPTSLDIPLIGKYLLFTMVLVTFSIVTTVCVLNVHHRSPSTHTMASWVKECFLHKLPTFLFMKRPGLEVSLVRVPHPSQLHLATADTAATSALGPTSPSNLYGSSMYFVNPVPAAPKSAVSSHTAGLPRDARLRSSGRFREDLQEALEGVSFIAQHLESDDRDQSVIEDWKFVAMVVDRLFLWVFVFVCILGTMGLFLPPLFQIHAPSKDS
- Sequence (P43143 whole entry, looked up): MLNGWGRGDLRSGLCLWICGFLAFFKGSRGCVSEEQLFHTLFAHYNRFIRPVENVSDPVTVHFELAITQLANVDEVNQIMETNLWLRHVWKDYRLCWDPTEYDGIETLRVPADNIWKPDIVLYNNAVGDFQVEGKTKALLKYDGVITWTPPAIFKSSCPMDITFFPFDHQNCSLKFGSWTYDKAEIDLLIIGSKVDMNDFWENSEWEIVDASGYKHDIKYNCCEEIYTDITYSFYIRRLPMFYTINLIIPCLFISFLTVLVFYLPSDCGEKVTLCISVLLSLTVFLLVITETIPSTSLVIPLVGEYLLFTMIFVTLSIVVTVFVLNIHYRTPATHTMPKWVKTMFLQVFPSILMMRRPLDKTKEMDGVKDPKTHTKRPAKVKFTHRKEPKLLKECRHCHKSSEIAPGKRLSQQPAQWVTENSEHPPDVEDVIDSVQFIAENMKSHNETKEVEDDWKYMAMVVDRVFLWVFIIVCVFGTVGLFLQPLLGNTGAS
- EXPERIMENT: cell-based
Peptide text beside a SMILES is read from it.
READOUT TYPE: α6/α3β4 IC50 ratio
Give the value as a plain number.

Name the recorded α6/α3β4 IC50 ratio of the compound listed here: CC[C@H](C)[C@@H]1NC(=O)[C@@H]2CCCN2C(=O)[C@H](C)NC(=O)[C@H](CCSC)NC(=O)[C@H](C)NC(=O)[C@H](CO)NC(=O)[C@@H]2CSSC[C@H](NC(=O)CN)C(=O)N[C@@H](CSSC[C@@H](C(N)=O)NC1=O)C(=O)N[C@@H](CO)C(=O)N[C@@H](Cc1c[nH]cn1)C(=O)N1CCC[C@H]1C(=O)N[C@@H](C(C)C)C(=O)N2 [TxID[S12A]] (HELM PEPTIDE1{G.C.C.S.H.P.V.C.S.A.M.A.P.I.C.[am]}$PEPTIDE1,PEPTIDE1,2:R3-8:R3|PEPTIDE1,PEPTIDE1,3:R3-15:R3$$$V2.0)
1.2
